- Tested on: RPMI 8226 (multiple myeloma) cells
- test description: MTT cell growth inhibition, multiple myeloma cells
- Format: cell-based, human
- particulars: Homo sapiens; RPMI 8226, 72 h, MTT; read-out: IC90
quantity measured: IC90 (µg/mL)

Please review the following examples before continuing.
compound	IC90 / µg/mL
COc1ccc2cc1Oc1ccc(cc1)C[C@H]1c3cc(c(OC)cc3CCN1C)Oc1c(OCC(O)CN3CCSCC3)c(OC)cc3c1[C@H](C2)N(C)CC3 (stereo partly drawn)	0.5
COc1ccc2cc1Oc1ccc(cc1)C[C@H]1c3cc(c(OC)cc3CCN1C)Oc1c(OCC(O)CN3CCCCC3)c(OC)cc3c1[C@H](C2)N(C)CC3 (stereo partly drawn)	0.13
COc1ccc2cc1Oc1ccc(cc1)C[C@H]1c3cc(c(OC)cc3CCN1C)Oc1c(OCC(O)CNCC3CC3)c(OC)cc3c1[C@H](C2)N(C)CC3 (stereo partly drawn)	0.44
COc1ccc2cc1Oc1ccc(cc1)C[C@H]1c3cc(c(OC)cc3CCN1C)Oc1c(OCC3CC3)c(OC)cc3c1[C@H](C2)N(C)CC3	0.5

I = C=CCOc1c(OC)cc2c3c1Oc1cc4c(cc1OC)CCN(C)[C@H]4Cc1ccc(cc1)Oc1cc(ccc1OC)C[C@@H]3N(C)CC2
II = COc1ccc2cc1Oc1ccc(cc1)C[C@H]1c3cc(c(OC)cc3CCN1C)Oc1c(OCC(O)CN3CCN(C#N)CC3)c(OC)cc3c1[C@H](C2)N(C)CC3 (stereo partly drawn)
## Task Which entry shows the lesser value of IC90 here, I or II ? To answer, give the label that identifies your chosen option.
## Result II
(II: 0.25 µg/mL, I: 0.5 µg/mL)
